The reported measurements were obtained from the supplement of paper PMC10567573.

This listing pairs variants with measured protein stability index.
B1: CCND1 (parent)
chain: PEAEENKQIIRKHAQTFVALCATD

Variants of: B1
Experiment: protein stability index of a GFP-peptide fusion (GPS, HEK-293T) (PSI 1-6); higher = more stable;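 also: lentivirally expressed fusions sorted by FACS into six bins by GFP to DsRed ratio, PSI derived from sequencing read proportions per bin multiplied by bin number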
Settings: c terminus: a fixed tail appended

- SEQUENCE_STRING: "PEAEGNKQIIRKHAQTFVALCATD [E5G]"
  protein stability index: 2.47
- SEQUENCE_STRING: "PEAEENKQIIRKHAQTFVALCACD [T23C]"
  protein stability index: 2.64
- SEQUENCE_STRING: "PEAEENKQIIRKRAQTFVALCATD [H13R]"
  protein stability index: 2.9
- SEQUENCE_STRING: "PEAEENKQIIRKHAQTFVALCATT [D24T]"
  protein stability index: 3.35
- SEQUENCE_STRING: "PEAEENKQRIRKHAQTFVALCATD [I9R]"
  protein stability index: 2.17
- SEQUENCE_STRING: "REAEENKQIIRKHAQTFVALCATD [P1R]"
  protein stability index: 2.59
- SEQUENCE_STRING: "PEAEENKQIIRKHAQTAVALCATD [F17A]"
  protein stability index: 4.99
- SEQUENCE_STRING: "PEAEENKQIIRKHAQTFVFLCATD [A19F]"
  protein stability index: 3.08
- SEQUENCE_STRING: "PEAESNKQIIRKHAQTFVALCATD [E5S]"
  protein stability index: 1.79
- SEQUENCE_STRING: "PEAEENKQIIRKHAQTFVALCAPD [T23P]"
  protein stability index: 3.07
- SEQUENCE_STRING: "PEAEENKQIIRKHADTFVALCATD [Q15D]"
  protein stability index: 3.66
- SEQUENCE_STRING: "PEAEENKQIIRKHAQTFVALCAQD [T23Q]"
  protein stability index: 2.54
- SEQUENCE_STRING: "PEAEENKQIIRKHAQTRVALCATD [F17R]"
  protein stability index: 4.54
- SEQUENCE_STRING: "PEAEENKQIIRKQAQTFVALCATD [H13Q]"
  protein stability index: 3.4
- SEQUENCE_STRING: "PEAEENKQIIRKHAQTFVALIATD [C21I]"
  protein stability index: 1.98
- SEQUENCE_STRING: "PEAKENKQIIRKHAQTFVALCATD [E4K]"
  protein stability index: 2.04
- SEQUENCE_STRING: "PEAEENKQIIRKHAQTFVALCETD [A22E]"
  protein stability index: 2.96
- SEQUENCE_STRING: "PEAEENKQIIRWHAQTFVALCATD [K12W]"
  protein stability index: 2.34
- SEQUENCE_STRING: "PEAEENKQIIGKHAQTFVALCATD [R11G]"
  protein stability index: 3.16
- SEQUENCE_STRING: "PEAEENKQIIRKDAQTFVALCATD [H13D]"
  protein stability index: 4.02
- SEQUENCE_STRING: "PVAEENKQIIRKHAQTFVALCATD [E2V]"
  protein stability index: 2.8
- SEQUENCE_STRING: "PESEENKQIIRKHAQTFVALCATD [A3S]"
  protein stability index: 2.46
- SEQUENCE_STRING: "PEAEENKQIIRKHAQTFVALCATM [D24M]"
  protein stability index: 2.93
- SEQUENCE_STRING: "PEAEENKQIIRKHVQTFVALCATD [A14V]"
  protein stability index: 2.3
- SEQUENCE_STRING: "PEAEENKQIIRKHAQYFVALCATD [T16Y]"
  protein stability index: 3.58
- SEQUENCE_STRING: "PEAEENKQIMRKHAQTFVALCATD [I10M]"
  protein stability index: 3.5
- SEQUENCE_STRING: "PEAEENKQIIRQHAQTFVALCATD [K12Q]"
  protein stability index: 3.9
- SEQUENCE_STRING: "PEAEENKWIIRKHAQTFVALCATD [Q8W]"
  protein stability index: 2.05
- SEQUENCE_STRING: "PEAEEDKQIIRKHAQTFVALCATD [N6D]"
  protein stability index: 2.79
- SEQUENCE_STRING: "PEAEENKQIIRKHMQTFVALCATD [A14M]"
  protein stability index: 2.97
- SEQUENCE_STRING: "PEAEENKQIIRKHAQKFVALCATD [T16K]"
  protein stability index: 4.7
- SEQUENCE_STRING: "PEAEENKNIIRKHAQTFVALCATD [Q8N]"
  protein stability index: 3.13
- SEQUENCE_STRING: "PPAEENKQIIRKHAQTFVALCATD [E2P]"
  protein stability index: 2.83
- SEQUENCE_STRING: "PEAEENKVIIRKHAQTFVALCATD [Q8V]"
  protein stability index: 2.07
- SEQUENCE_STRING: "PEAEENKQIIRKHAQTFVAGCATD [L20G]"
  protein stability index: 4.71
- SEQUENCE_STRING: "PEAEENKQIIRKHAQTFWALCATD [V18W]"
  protein stability index: 3.76
- SEQUENCE_STRING: "PEAEENKQIIRKMAQTFVALCATD [H13M]"
  protein stability index: 2.89
- SEQUENCE_STRING: "PEAEENKFIIRKHAQTFVALCATD [Q8F]"
  protein stability index: 2.24
- SEQUENCE_STRING: "PEAEENKQIIRKHAQTFVALCAHD [T23H]"
  protein stability index: 2.64
- SEQUENCE_STRING: "PEAEENKQIITKHAQTFVALCATD [R11T]"
  protein stability index: 3.47
- SEQUENCE_STRING: "PEAEENKQIIRKHLQTFVALCATD [A14L]"
  protein stability index: 2.18
- SEQUENCE_STRING: "PEAEENKQIIRKHAQMFVALCATD [T16M]"
  protein stability index: 3.86
- SEQUENCE_STRING: "PEAEEGKQIIRKHAQTFVALCATD [N6G]"
  protein stability index: 2.35
- SEQUENCE_STRING: "PEAEENKQMIRKHAQTFVALCATD [I9M]"
  protein stability index: 3.53
- SEQUENCE_STRING: "PEAEENKQIICKHAQTFVALCATD [R11C]"
  protein stability index: 2.94
- SEQUENCE_STRING: "PEAEENKQIIRKHAMTFVALCATD [Q15M]"
  protein stability index: 2.59
- SEQUENCE_STRING: "PEAEEHKQIIRKHAQTFVALCATD [N6H]"
  protein stability index: 3.04
- SEQUENCE_STRING: "PEAEENKQIIRKHAYTFVALCATD [Q15Y]"
  protein stability index: 2.01
- SEQUENCE_STRING: "PEAEENKQIIWKHAQTFVALCATD [R11W]"
  protein stability index: 2.6
- SEQUENCE_STRING: "PEAEENKQIIRKHAPTFVALCATD [Q15P]"
  protein stability index: 3.48
- SEQUENCE_STRING: "PEAEENKQIIRKHAVTFVALCATD [Q15V]"
  protein stability index: 2.84
- SEQUENCE_STRING: "PEAEENKQIPRKHAQTFVALCATD [I10P]"
  protein stability index: 3.14
- SEQUENCE_STRING: "PEHEENKQIIRKHAQTFVALCATD [A3H]"
  protein stability index: 2.02
- SEQUENCE_STRING: "PEGEENKQIIRKHAQTFVALCATD [A3G]"
  protein stability index: 2.8
- SEQUENCE_STRING: "PEAEENKQIIRKHPQTFVALCATD [A14P]"
  protein stability index: 2.64
- SEQUENCE_STRING: "PEAEENKQIIRKHAQTFVALCATV [D24V]"
  protein stability index: 2.54
- SEQUENCE_STRING: "PEAEENKKIIRKHAQTFVALCATD [Q8K]"
  protein stability index: 2.33
- SEQUENCE_STRING: "PEAEENKQIIRKHAQTFDALCATD [V18D]"
  protein stability index: 5.34
- SEQUENCE_STRING: "PKAEENKQIIRKHAQTFVALCATD [E2K]"
  protein stability index: 2.73
- SEQUENCE_STRING: "PEAEENKQIIRKEAQTFVALCATD [H13E]"
  protein stability index: 3.7
- SEQUENCE_STRING: "PEAEENKQIIRKHARTFVALCATD [Q15R]"
  protein stability index: 2.32
- SEQUENCE_STRING: "PEAEENKQIIRKHANTFVALCATD [Q15N]"
  protein stability index: 3.41
- SEQUENCE_STRING: "PEAEENKQIIRKHAQTFVALCATK [D24K]"
  protein stability index: 3.84
- SEQUENCE_STRING: "PEAEENKQIIRKHAQTFVALCATI [D24I]"
  protein stability index: 2.15
- SEQUENCE_STRING: "PEREENKQIIRKHAQTFVALCATD [A3R]"
  protein stability index: 3.26
- SEQUENCE_STRING: "PEAEENKQIIRKHAQTFVALCAKD [T23K]"
  protein stability index: 2.92
- SEQUENCE_STRING: "PEAPENKQIIRKHAQTFVALCATD [E4P]"
  protein stability index: 3.27
- SEQUENCE_STRING: "PEAEENKQIIRKHAFTFVALCATD [Q15F]"
  protein stability index: 2.07
- SEQUENCE_STRING: "KEAEENKQIIRKHAQTFVALCATD [P1K]"
  protein stability index: 2.07
- SEQUENCE_STRING: "PEAEENKQDIRKHAQTFVALCATD [I9D]"
  protein stability index: 3.9
- SEQUENCE_STRING: "PEAEENKQIIRKHAQTFYALCATD [V18Y]"
  protein stability index: 3.75
- SEQUENCE_STRING: "PEAEQNKQIIRKHAQTFVALCATD [E5Q]"
  protein stability index: 2.33
- SEQUENCE_STRING: "PEAEENKQIIRKHAQTFVALLATD [C21L]"
  protein stability index: 1.66
- SEQUENCE_STRING: "HEAEENKQIIRKHAQTFVALCATD [P1H]"
  protein stability index: 3.19
- SEQUENCE_STRING: "PEAEENKQIIRKHAQTFSALCATD [V18S]"
  protein stability index: 4.49
- SEQUENCE_STRING: "PEAYENKQIIRKHAQTFVALCATD [E4Y]"
  protein stability index: 2.08
- SEQUENCE_STRING: "PYAEENKQIIRKHAQTFVALCATD [E2Y]"
  protein stability index: 2.69
- SEQUENCE_STRING: "PEAECNKQIIRKHAQTFVALCATD [E5C]"
  protein stability index: 1.86
- SEQUENCE_STRING: "PEAEENKQIIRKHAQTFVALCITD [A22I]"
  protein stability index: 2.95
- SEQUENCE_STRING: "PEAEENKQIIRKHAQTFVALWATD [C21W]"
  protein stability index: 3.59
- SEQUENCE_STRING: "PAAEENKQIIRKHAQTFVALCATD [E2A]"
  protein stability index: 2.54
- SEQUENCE_STRING: "PEAEENKQIIRKHAQQFVALCATD [T16Q]"
  protein stability index: 4.13
- SEQUENCE_STRING: "PEAEENKQIIRKHAQTFVWLCATD [A19W]"
  protein stability index: 3.06
- SEQUENCE_STRING: "PEAEENKQITRKHAQTFVALCATD [I10T]"
  protein stability index: 3.04
- SEQUENCE_STRING: "PEAEENKQIIRKHAQTFVALHATD [C21H]"
  protein stability index: 4.37
- SEQUENCE_STRING: "PEAEENKQIIRKHAQTFVALTATD [C21T]"
  protein stability index: 2.78
- SEQUENCE_STRING: "PEAELNKQIIRKHAQTFVALCATD [E5L]"
  protein stability index: 1.91
- SEQUENCE_STRING: "PEAEENKQIIRKHAQTFTALCATD [V18T]"
  protein stability index: 3.96
- SEQUENCE_STRING: "PEAEENIQIIRKHAQTFVALCATD [K7I]"
  protein stability index: 2.6
- SEQUENCE_STRING: "PEAEENKQIIRKHAQTFVALSATD [C21S]"
  protein stability index: 4.07
- SEQUENCE_STRING: "PEAEENKQIIRKHAQTFVALCFTD [A22F]"
  protein stability index: 2.63
